# Tested on: LCLC-103H
# experimental protocol: relative viability (nuclei count vs DMSO), 5 days (fraction); higher = more cells survive
# condition parameters: first compound 0.5 µM
measure name: relative viability

compound | reported value
CC1(C)CCC(c2ccc(Cl)cc2)=C(CN2CCN(c3ccc(C(=O)NS(=O)(=O)c4ccc(N[C@H](CCN5CCOCC5)CSc5ccccc5)c(S(=O)(=O)C(F)(F)F)c4)cc3)CC2)C1 [Navitoclax] + Cc1cc(Nc2cc(N3CCN(C)CC3)nc(Sc3ccc(NC(=O)C4CC4)cc3)n2)n[nH]1 [Tozasertib] (partner 0.1 µM) | 0.466
CC1(C)CCC(c2ccc(Cl)cc2)=C(CN2CCN(c3ccc(C(=O)NS(=O)(=O)c4ccc(N[C@H](CCN5CCOCC5)CSc5ccccc5)c(S(=O)(=O)C(F)(F)F)c4)cc3)CC2)C1 [Navitoclax] + Cc1nc(NC(=O)N2CCC[C@H]2C(N)=O)sc1-c1ccnc(C(C)(C)C(F)(F)F)c1 [Alpelisib] (partner 2 µM) | 0.963
CC1(C)CCC(c2ccc(Cl)cc2)=C(CN2CCN(c3ccc(C(=O)NS(=O)(=O)c4ccc(N[C@H](CCN5CCOCC5)CSc5ccccc5)c(S(=O)(=O)C(F)(F)F)c4)cc3)CC2)C1 [Navitoclax] + CC(=O)Nc1cccc(-n2c(=O)n(C3CC3)c(=O)c3c(Nc4ccc(I)cc4F)n(C)c(=O)c(C)c32)c1 [Trametinib] (partner 0.02 µM) | 0.685
CC1(C)CCC(c2ccc(Cl)cc2)=C(CN2CCN(c3ccc(C(=O)NS(=O)(=O)c4ccc(N[C@H](CCN5CCOCC5)CSc5ccccc5)c(S(=O)(=O)C(F)(F)F)c4)cc3)CC2)C1 [Navitoclax] + CS(=O)(=O)N1CCN(Cc2cc3nc(-c4cccc5[nH]ncc45)nc(N4CCOCC4)c3s2)CC1 [Pictilisib] (partner 1 µM) | 0.799
CC1(C)CCC(c2ccc(Cl)cc2)=C(CN2CCN(c3ccc(C(=O)NS(=O)(=O)c4ccc(N[C@H](CCN5CCOCC5)CSc5ccccc5)c(S(=O)(=O)C(F)(F)F)c4)cc3)CC2)C1 [Navitoclax] + CC(=O)c1c(C)c2cnc(Nc3ccc(N4CCNCC4)cn3)nc2n(C2CCCC2)c1=O [Palbociclib] (partner 0.5 µM) | 0.418

###

# Tested on: NCI-H23
# experimental protocol: relative viability (nuclei count vs DMSO), 5 days (fraction); higher = more cells survive
# condition parameters: first compound 0.03162 µM
The entries below come with measured relative viability values attached.
measure name: relative viability

molecule | measure name | reported value
NC(=O)Nc1cc(-c2cccc(F)c2)sc1C(=O)N[C@H]1CCCNC1 [AZD7762] + COc1cc2c(Oc3ccc(NC(=O)C4(C(=O)Nc5ccc(F)cc5)CC4)cc3F)ccnc2cc1OCCCN1CCOCC1 [Foretinib] (partner 0.25 µM) | relative viability | 1.09
NC(=O)Nc1cc(-c2cccc(F)c2)sc1C(=O)N[C@H]1CCCNC1 [AZD7762] + CC1(C)CCC(c2ccc(Cl)cc2)=C(CN2CCN(c3ccc(C(=O)NS(=O)(=O)c4ccc(N[C@H](CCN5CCOCC5)CSc5ccccc5)c(S(=O)(=O)C(F)(F)F)c4)cc3)CC2)C1 [Navitoclax] (partner 0.5 µM) | relative viability | 0.886
NC(=O)Nc1cc(-c2cccc(F)c2)sc1C(=O)N[C@H]1CCCNC1 [AZD7762] + CC(=O)c1c(C)c2cnc(Nc3ccc(N4CCNCC4)cn3)nc2n(C2CCCC2)c1=O [Palbociclib] (partner 0.5 µM) | relative viability | 0.629
NC(=O)Nc1cc(-c2cccc(F)c2)sc1C(=O)N[C@H]1CCCNC1 [AZD7762] + Cc1nc(NC(=O)N2CCC[C@H]2C(N)=O)sc1-c1ccnc(C(C)(C)C(F)(F)F)c1 [Alpelisib] (partner 2 µM) | relative viability | 0.721
